# system-name: GluN1/GluN2D NMDA receptor (Rattus norvegicus, UniProt P35439+Q62645)
# Sequence (Q62645 28-1323, other chains not shown): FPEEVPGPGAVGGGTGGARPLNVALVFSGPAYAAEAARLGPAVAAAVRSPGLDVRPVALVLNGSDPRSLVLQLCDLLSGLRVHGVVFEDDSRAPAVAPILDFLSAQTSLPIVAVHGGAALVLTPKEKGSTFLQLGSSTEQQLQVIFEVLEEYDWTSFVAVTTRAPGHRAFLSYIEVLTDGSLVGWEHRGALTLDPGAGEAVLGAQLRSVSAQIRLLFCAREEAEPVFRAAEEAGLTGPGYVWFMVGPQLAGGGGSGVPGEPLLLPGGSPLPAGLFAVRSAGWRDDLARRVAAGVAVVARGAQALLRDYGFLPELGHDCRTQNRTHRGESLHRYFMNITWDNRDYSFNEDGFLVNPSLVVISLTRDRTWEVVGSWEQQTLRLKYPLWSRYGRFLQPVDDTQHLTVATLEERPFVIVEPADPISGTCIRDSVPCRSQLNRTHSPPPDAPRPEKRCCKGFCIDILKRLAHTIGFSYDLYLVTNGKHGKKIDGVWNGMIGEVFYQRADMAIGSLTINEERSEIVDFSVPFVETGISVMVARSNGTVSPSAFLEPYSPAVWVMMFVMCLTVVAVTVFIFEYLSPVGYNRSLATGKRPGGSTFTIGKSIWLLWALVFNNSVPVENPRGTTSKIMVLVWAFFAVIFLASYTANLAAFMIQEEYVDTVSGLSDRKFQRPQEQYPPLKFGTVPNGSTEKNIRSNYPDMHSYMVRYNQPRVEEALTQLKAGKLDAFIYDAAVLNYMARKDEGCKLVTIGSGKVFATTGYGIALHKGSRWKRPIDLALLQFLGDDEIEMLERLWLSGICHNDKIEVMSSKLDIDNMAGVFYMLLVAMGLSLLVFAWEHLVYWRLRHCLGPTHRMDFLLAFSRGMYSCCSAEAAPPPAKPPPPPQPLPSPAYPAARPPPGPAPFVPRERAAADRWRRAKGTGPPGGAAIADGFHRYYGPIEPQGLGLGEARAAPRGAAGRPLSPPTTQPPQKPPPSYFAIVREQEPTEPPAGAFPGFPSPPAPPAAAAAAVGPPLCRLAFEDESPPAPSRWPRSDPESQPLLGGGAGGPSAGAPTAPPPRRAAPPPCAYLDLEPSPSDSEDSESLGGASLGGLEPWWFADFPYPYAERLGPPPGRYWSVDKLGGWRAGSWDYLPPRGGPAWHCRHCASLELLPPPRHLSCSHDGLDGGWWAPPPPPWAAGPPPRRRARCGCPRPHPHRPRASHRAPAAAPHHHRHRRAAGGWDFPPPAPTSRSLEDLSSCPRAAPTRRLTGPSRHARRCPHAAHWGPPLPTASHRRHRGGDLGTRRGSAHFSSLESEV
# Type: cell-based
# condition-details: IC50 GluN1/GluN2D, 10 μM L-glutamate plus 10 μM glycine, −60 mV, ± s.e.m., n ≥ 4
readout-label: IC50 (µM)
One number for each entry, in µM.

# input Item under review: O=C(O)c1cc2cc(Br)ccc2c(Br)c1O [UBP552, 1,6-Dibromo-2-hydroxy-3-naphthoic acid] . Reported IC50?
# output 3.35

----------
# system-name: GluN1/GluN2D NMDA receptor (Rattus norvegicus, UniProt P35439+Q62645)
# Type: cell-based
# condition-details: IC50 GluN1/GluN2D, [Gly] 300 μM, [L-Glu] 300 μM
readout-label: pIC50
Give bare numbers, as −log10 of the molar value.

# input Item under review: O=C(O)c1cc2cc(Br)ccc2c(Br)c1O [UBP552, 1,6-Dibromo-2-hydroxy-3-naphthoic acid] . Reported pIC50?
# output 5.31
